- STUDY_TARGET: T1, DENV抗原 (DENV阳性血清) (dengue virus (DENV), serotype )
- T1 construct: also called DENV antigen in DENV-positive serum
- TEST_SUMMARY: sandwich ELISA, antibody at 6.25 ng/ml captured on goat anti-mouse IgG, DENV-positive serum, HRP-labelled DENV mAb
EXPERIMENTAL_READOUT: OD (450nm, 参考630nm) (OD)
Quick reminder: number only, in OD, skip the unit.

Quickly give me recorded OD (450nm, 参考630nm) for DF-5M32RMb4 (antibody, mouse IgG1, kappa, V domains shown, also called DF-8F13RMb4) VH: QVQLQQSGAELARPGASVKLSCKASGYTFINYWMQWVKQRPGQGLEWIGAIYPGDGDTRYTQNFKGKAALTADKSSSTAYMQLSSLASEDSAVYYCATGTEGLLDYWGQGTSVTVSS VL: DAVMTQTPLTLSVLIGQPASLSCKSSQSLLESDGKTYLNWLFQRPGQSPKRLIYLVSKLESGVPDRFTGSGSGTEFTLKISRVEAEDLGVYYCWQATHHPLTFGTGTNLELKR
1.49

Answer with the recorded OD (450nm, 参考630nm) of DF-5M32RMb2 (antibody, mouse IgG1, kappa, V domains shown, also called DF-8F13RMb2) VH: QVQLQQSGAELARPGASVKLSCKASGYTFLNYWMQWVKQRPGQGLEWIGAIYPGDGDTRYTQNFKGKAALTADKSSSTAYMQLSSLASEDSAVYYCATGTEGLLDYWGQGTSVTVSS VL: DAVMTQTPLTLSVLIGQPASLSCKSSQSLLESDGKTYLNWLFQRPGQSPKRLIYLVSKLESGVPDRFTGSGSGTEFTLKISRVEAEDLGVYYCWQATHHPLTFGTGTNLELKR only.
1.47

Consider the binder DF-5M32RMb3 (antibody, mouse IgG1, kappa, V domains shown, also called DF-8F13RMb3) VH: QVQLQQSGAELARPGASVKLSCKASGYTFLNYWMQWVKQRPGQGLEWIGAIYPGDGDTRYTQNFKGKAALTADKSSSTAYMQLSSLASEDSAVYYCATGTEGILDYWGQGTSVTVSS VL: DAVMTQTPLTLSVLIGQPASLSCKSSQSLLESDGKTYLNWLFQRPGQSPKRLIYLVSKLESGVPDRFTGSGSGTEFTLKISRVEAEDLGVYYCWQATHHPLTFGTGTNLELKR and give its recorded OD (450nm, 参考630nm).
1.5

Return OD (450nm, 参考630nm) for the following binder: DF-5M32RMb1 (antibody, mouse IgG1, kappa, V domains shown, also called Anti-DF 5M32; Anti-DF 5M32单克隆抗体 (recombinant)) VH: QVQLQQSGAELARPGASVKLSCKASGYTFINYWMQWVKQRPGQGLEWIGAIYPGDGDTRYTQNFKGKAALTADKSSSTAYMQLSSLASEDSAVYYCATGTEGILDYWGQGTSVTVSS VL: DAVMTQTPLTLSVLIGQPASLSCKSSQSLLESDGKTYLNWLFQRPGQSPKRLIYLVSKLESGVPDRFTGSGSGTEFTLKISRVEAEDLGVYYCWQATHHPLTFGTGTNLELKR
1.52
